// Ki lookup, one value per entry
Sequence of the target: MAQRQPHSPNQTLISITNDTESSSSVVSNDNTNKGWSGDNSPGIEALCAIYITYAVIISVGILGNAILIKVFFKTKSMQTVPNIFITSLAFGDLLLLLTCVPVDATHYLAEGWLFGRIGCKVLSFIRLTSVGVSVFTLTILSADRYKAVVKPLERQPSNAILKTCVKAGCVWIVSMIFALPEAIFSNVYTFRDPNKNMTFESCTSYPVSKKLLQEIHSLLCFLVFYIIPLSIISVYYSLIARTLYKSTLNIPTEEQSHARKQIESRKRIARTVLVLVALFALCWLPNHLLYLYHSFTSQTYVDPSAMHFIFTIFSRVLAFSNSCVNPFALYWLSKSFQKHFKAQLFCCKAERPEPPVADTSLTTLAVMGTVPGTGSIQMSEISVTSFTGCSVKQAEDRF
Where a SMILES comes first, the peptide text is derived from it. [ ]: non-standard residue; d: D form. pGlu = O=C1CC[C@@H](C(=O)O)N1

INSERT INTO measurements (molecule, measured) VALUES
  ('CSCC[C@H](NC(=O)[C@H](Cc1ccccc1)NC(=O)[C@H](Cc1cnc[nH]1)NC(=O)CNC(=O)[C@@H](NC(=O)[C@H](CCCN=C(N)N)NC(=O)[C@H](Cc1c[nH]c2ccccc12)NC(=O)[C@H](CCC(N)=O)NC(=O)[C@H](CC(N)=O)NC(=O)CNC(=O)[C@H](CC(C)C)NC(=O)[C@H](CO)NC(=O)[C@H](CCC(N)=O)NC(=O)[C@@H]1CCC(=O)N1)C(C)C)C(N)=O [CAS_31362-50-2] ([pGlu]QSLGNQWRVGHFM-NH2)', '7.1 µM');

// next entry
get_value(item= CSCC[C@H](NC(=O)[C@H](CC(C)C)NC(=O)[C@H](Cc1cnc[nH]1)NC(=O)CNC(=O)[C@@H](NC(=O)[C@H](C)NC(=O)[C@H](Cc1c[nH]c2ccccc12)NC(=O)[C@H](Cc1cnc[nH]1)NC(=O)[C@H](CC(N)=O)NC(=O)CN)C(C)C)C(N)=O [GRP-10,frog] , readout=Ki) returns > 10 µM
